Values were extracted from patent US6268391A.

Molecular target: Human cRaf1 (Homo sapiens)
Construct: poly-histidine (C); made in house
Test: Raf kinase assay (cRaf1 assay / Raf/MEK cascade assay)
Format: biochemical
readoutLabel: IC50

The recorded IC50 for entry CN1CCN(C(=O)Oc2c(Br)cc(C=C3C(=O)Nc4ccc(I)cc43)cc2Br)CC1 [Example 153] equals 10 to 100 µM

====

Molecular target: Human cRaf1 (Homo sapiens, UniProt P04049)
Construct: poly-histidine (C); made in house
Sequence (P04049 whole entry): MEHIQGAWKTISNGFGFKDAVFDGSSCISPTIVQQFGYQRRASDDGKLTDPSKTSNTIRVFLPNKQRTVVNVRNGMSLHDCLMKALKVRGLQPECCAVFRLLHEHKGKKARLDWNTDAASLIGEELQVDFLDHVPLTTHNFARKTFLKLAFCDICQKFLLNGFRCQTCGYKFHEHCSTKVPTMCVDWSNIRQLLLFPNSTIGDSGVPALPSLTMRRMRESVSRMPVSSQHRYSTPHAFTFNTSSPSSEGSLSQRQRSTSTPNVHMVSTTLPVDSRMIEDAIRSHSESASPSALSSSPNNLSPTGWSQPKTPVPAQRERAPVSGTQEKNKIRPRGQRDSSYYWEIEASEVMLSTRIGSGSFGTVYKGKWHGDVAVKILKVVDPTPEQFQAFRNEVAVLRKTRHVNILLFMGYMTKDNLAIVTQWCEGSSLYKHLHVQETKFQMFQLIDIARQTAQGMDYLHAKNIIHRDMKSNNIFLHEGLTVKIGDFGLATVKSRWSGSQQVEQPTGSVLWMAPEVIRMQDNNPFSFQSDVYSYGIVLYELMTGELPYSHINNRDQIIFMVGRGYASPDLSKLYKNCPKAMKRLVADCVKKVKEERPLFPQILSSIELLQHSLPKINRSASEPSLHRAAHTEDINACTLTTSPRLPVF
Assay: Raf kinase assay (cRaf1 assay / Raf/MEK cascade assay)
Assay type: biochemical
Conditions: Table 3; read-out: Raf Kinase activity
pIC50: −log10 of the molar value.
Assign pIC50 to each entry below.

The recorded pIC50 for entry O=C1Nc2ccc(-c3cc(C(F)(F)F)cc(C(F)(F)F)c3)cc2C1=Cc1cc(Br)c(O)c(Br)c1 equals > 6.00

The recorded pIC50 for entry O=C1Nc2ccc([N+](=O)[O-])cc2C1=Cc1cc(O)c(O)c(Cl)c1 equals > 6.00

The recorded pIC50 for entry O=C(OCc1ccccc1)Oc1c(Br)cc(C=C2C(=O)Nc3ccc(Cl)cc32)cc1Br equals 4.00 to 5.00

The recorded pIC50 for entry CCN(CC)CC(=O)c1ccc2c(c1)C(=Cc1cc(Cl)c(O)c(Cl)c1)C(=O)N2 equals > 6.00

The recorded pIC50 for entry CC(=O)c1ccc2c(c1)C(=Cc1cc(Br)c(O)c(Br)c1)C(=O)N2 equals > 6.00

The recorded pIC50 for entry CC(=O)Oc1c(Br)cc(C=C2C(=O)Nc3ccc(Cl)cc32)cc1Br equals 4.00 to 5.00

The recorded pIC50 for entry CCOc1cc(C=C2C(=O)Nc3ccc([N+](=O)[O-])cc32)cc(Br)c1O equals > 6.00

The recorded pIC50 for entry O=C1Nc2c(I)cc(C(=O)CCl)cc2C1=Cc1cc(Br)c(O)c(Br)c1 equals > 6.00
